Please provide measured inhibition for the entries that follow.
- target desc: Solute carrier family 2, facilitated glucose transporter member 1 (Homo sapiens) (UniProt P11166)
- Sequence (P11166 whole entry): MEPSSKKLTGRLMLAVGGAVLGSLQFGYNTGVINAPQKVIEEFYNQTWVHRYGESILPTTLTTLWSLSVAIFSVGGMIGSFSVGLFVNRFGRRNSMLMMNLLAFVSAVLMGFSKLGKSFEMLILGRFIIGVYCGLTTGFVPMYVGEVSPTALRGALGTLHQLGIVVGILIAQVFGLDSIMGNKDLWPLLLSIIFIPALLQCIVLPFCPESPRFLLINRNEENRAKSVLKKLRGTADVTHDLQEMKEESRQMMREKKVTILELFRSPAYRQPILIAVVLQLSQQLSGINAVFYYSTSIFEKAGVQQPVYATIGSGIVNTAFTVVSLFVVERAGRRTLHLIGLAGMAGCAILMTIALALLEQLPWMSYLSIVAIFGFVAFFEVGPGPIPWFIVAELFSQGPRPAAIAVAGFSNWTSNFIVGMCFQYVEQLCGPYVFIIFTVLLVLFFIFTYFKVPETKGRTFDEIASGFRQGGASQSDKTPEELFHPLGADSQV
- assay explanation: ST_JUDE_LEISH: Cytotoxicity at 2uM final concentration against transgenic Leishmania Mexicana promastigotes LmGLUT1 that are glucose transport deficient and complemented with the human glucose transporter GLUT1. Activity is measured by DNA content using SYBR green in vitro
- Assay type: functional
Give bare numbers, in %.

| molecule | unit text | reported measurement |
| --- | --- | --- |
| O=C(Nc1ccsc1)Nc1cccc(-c2ccc(-c3nc4cc(C(F)(F)F)ccc4[nH]3)cc2)c1 | % | 6.66 |
| N#Cc1ccc(CCNc2nccc(-c3cccc(CN4CCNCC4)c3)n2)cc1 | % | 12.3 |
| COc1ccc(CCn2c(=N)c(C(=O)NCc3cccnc3)cc3c(=O)n4ccccc4nc32)cc1 | % | 11.7 |
| COc1cc2c(cc1N1CC(C)NC(C)C1)N(C(=O)c1ccc(-c3ccc(-c4ncc[nH]4)cc3C)cc1)CC2 (centres undefined) | % | 2.21 |
| O=C(Nc1ccc(N2CCN(C(=O)/C=C/c3ccccc3)CC2)c(Cl)c1)c1ccc([N+](=O)[O-])o1 | % | 58.5 |
| O=C(CNC1=NCCN1)Nc1ccc(NC(=O)Nc2ccc(NC(=O)CNC3=NCCN3)cc2)cc1 | % | 3.51 |
| O=C(c1cc(-c2cccs2)n[nH]1)N1CCN(S(=O)(=O)c2ccc(Cl)cc2)CC1 | % | 2.31 |
| CC(=O)OC[C@H]1O[C@@H](C#Cc2ccccc2)[C@H](OC(C)=O)[C@@H](OC(C)=O)[C@@H]1OC(C)=O | % | 1.22 |

input: inhibition for "N#Cc1ccc(CN2CCCN(Cc3cccc(NC(=O)c4cc5ccccc5s4)c3)CC2)cc1" ?
output: -0.46
